Origin of measurements: ChEMBL document CHEMBL4680084

Target: Integrin alpha-IIb/beta-3 (Homo sapiens, UniProt P05106+P08514)
Sequence (P05106 27-788 limits assumed): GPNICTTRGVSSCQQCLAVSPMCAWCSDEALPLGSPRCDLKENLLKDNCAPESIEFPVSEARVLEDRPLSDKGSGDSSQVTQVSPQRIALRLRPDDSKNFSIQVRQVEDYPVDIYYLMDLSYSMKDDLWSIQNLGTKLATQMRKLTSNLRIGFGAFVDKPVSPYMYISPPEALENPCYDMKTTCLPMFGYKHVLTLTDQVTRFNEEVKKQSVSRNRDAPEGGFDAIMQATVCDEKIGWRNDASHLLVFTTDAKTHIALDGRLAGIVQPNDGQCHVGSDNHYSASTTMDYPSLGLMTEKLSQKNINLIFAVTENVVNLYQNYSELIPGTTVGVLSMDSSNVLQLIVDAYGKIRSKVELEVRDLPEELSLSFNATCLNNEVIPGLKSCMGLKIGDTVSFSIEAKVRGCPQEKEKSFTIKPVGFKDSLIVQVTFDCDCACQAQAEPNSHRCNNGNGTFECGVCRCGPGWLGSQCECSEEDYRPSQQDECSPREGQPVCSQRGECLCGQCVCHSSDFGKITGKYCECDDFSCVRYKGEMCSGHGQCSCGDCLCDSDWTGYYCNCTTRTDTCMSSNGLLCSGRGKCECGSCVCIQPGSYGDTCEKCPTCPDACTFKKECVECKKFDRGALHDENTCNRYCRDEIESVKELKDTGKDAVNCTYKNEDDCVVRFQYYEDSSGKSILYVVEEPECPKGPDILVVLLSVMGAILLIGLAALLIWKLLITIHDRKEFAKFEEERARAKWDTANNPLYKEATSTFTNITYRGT
Sequence (P08514 32-887 limits assumed): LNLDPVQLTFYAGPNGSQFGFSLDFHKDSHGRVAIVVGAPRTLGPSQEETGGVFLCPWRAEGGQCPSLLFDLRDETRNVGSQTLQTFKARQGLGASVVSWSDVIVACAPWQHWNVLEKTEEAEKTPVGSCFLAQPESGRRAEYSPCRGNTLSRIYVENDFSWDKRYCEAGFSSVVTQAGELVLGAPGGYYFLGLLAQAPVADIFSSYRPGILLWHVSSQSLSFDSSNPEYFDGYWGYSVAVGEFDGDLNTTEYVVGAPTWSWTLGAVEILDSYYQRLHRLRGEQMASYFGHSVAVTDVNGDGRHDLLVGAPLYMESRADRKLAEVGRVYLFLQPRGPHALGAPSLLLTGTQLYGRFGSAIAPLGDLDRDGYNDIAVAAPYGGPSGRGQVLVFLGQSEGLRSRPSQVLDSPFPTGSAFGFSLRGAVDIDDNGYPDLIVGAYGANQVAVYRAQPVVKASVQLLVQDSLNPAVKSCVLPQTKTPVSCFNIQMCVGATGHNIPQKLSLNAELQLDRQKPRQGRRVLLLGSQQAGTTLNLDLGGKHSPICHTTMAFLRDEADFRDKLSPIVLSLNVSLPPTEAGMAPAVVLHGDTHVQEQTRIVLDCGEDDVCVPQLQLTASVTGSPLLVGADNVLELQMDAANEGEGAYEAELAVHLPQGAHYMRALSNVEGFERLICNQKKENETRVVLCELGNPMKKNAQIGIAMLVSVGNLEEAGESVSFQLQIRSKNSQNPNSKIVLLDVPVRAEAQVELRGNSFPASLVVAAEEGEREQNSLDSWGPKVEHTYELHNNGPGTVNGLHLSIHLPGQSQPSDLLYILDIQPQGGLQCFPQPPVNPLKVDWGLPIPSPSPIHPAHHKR
Sequence (P08514 891-1039 limits assumed): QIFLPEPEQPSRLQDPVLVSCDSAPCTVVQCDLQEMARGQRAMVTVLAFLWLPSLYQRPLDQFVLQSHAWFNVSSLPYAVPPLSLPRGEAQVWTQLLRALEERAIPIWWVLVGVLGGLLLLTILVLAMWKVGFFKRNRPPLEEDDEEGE
Test: Antagonist activity at alpha2bbeta3 in human HEL cells assessed as reduction in cell adhesion to fibrinogen pre-incubated for 30 mins before fibrinogen and further incubated for 1 hr by nitrophenyl-N-acetyl-beta-D-glucosaminide substrate based chromogenic assay
QUANTITY_KIND: IC50

Problem: Please respond with reported IC50 (system Integrin alpha-IIb/beta-3 (Homo sapiens, UniProt P05106+P08514)) for H-GRGDTP-OH .
Result: > 5 µM

---

Target: Integrin alpha-5/beta-1 (Homo sapiens, UniProt P05556+P08648)
Sequence (P05556 21-798 limits assumed): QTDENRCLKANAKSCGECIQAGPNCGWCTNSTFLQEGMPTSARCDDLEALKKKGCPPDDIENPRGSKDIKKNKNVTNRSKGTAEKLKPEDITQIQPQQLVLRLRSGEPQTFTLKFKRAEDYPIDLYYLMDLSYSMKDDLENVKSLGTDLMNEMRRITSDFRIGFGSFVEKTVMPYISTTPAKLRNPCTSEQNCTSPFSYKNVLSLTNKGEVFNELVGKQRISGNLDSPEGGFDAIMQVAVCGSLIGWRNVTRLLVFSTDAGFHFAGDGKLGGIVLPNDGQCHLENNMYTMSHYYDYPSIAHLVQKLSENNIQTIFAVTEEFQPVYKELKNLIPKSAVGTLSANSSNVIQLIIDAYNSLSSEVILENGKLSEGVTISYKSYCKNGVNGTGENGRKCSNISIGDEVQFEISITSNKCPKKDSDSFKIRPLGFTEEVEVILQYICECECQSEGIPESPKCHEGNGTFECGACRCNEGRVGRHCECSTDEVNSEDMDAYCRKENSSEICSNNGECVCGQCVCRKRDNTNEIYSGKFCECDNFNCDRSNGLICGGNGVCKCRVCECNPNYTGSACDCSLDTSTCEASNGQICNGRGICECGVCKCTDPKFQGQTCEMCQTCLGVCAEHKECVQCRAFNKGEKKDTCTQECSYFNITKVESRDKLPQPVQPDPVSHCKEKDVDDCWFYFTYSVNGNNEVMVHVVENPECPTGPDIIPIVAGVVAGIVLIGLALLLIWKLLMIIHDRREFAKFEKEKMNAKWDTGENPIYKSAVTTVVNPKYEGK
Sequence (P08648 42-894 limits assumed): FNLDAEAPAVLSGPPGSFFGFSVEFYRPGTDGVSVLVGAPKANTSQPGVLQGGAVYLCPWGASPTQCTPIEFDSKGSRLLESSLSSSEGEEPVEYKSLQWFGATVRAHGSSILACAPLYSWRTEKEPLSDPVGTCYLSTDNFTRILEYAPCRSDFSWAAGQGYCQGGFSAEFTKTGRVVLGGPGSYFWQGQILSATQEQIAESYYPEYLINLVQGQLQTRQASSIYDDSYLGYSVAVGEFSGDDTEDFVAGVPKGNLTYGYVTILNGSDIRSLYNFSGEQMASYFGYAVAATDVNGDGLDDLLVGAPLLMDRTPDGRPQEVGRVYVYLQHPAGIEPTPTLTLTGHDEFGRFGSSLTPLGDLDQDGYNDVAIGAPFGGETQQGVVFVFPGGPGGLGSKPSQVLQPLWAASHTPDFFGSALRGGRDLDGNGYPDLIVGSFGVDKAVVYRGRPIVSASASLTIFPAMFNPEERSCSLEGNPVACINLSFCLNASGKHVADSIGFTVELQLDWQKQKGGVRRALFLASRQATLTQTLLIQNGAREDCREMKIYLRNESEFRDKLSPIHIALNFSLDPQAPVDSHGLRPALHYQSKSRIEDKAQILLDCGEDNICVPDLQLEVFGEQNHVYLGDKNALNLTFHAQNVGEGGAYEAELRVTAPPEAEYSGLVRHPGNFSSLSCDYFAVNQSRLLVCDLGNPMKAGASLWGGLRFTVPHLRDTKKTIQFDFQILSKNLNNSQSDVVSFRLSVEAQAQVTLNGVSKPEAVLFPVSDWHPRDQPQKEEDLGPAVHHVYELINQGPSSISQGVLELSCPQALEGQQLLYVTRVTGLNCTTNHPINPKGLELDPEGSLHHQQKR
Sequence (P08648 895-1049 limits assumed): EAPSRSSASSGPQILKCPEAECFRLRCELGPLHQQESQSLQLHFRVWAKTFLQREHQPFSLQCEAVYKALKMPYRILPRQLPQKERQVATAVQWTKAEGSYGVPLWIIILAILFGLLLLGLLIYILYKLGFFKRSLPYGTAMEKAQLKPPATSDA
Assay: Antagonist activity at alpha5beta1 in human K562 cells assessed as reduction in cell adhesion to fibronectin pre-incubated for 30 mins before fibronectin and further incubated for 1 hr by nitrophenyl-N-acetyl-beta-D-glucosaminide substrate based chromogenic assay
QUANTITY_KIND: pIC50
Scale: pIC50 equals -log10([C]), with [C] in mol/L.

Problem: Could you please provide reported pIC50 for Nc1ccc(CNC(=O)N2C(=O)CC2CC(=O)NCCC(=O)O)cc1.O=C(O)C(F)(F)F (stereo unspecified) ? Thanks!
Result: 5.98

Problem: Could you please provide reported pIC50 for O=C(O)CC1CC(=O)N1C(=O)NCc1ccccc1 (stereo unspecified) ? Thanks!
Result: 6.38

Problem: Could you please provide reported pIC50 for Cc1ccccc1NC(=O)N1C(=O)C[C@H]1C(=O)O ? Thanks!
Result: 6.80

Problem: Could you please provide reported pIC50 for Nc1ccc(CNC(=O)N2C(=O)C[C@H]2C(=O)O)cc1.O=C(O)C(F)(F)F ? Thanks!
Result: 6.28

---

Provide the reported pIC50 of each item.
Molecular target: Integrin alpha-V/beta-3 (Homo sapiens, UniProt P05106+P06756)
Sequence (P06756 31-889 limits assumed, one chain of several): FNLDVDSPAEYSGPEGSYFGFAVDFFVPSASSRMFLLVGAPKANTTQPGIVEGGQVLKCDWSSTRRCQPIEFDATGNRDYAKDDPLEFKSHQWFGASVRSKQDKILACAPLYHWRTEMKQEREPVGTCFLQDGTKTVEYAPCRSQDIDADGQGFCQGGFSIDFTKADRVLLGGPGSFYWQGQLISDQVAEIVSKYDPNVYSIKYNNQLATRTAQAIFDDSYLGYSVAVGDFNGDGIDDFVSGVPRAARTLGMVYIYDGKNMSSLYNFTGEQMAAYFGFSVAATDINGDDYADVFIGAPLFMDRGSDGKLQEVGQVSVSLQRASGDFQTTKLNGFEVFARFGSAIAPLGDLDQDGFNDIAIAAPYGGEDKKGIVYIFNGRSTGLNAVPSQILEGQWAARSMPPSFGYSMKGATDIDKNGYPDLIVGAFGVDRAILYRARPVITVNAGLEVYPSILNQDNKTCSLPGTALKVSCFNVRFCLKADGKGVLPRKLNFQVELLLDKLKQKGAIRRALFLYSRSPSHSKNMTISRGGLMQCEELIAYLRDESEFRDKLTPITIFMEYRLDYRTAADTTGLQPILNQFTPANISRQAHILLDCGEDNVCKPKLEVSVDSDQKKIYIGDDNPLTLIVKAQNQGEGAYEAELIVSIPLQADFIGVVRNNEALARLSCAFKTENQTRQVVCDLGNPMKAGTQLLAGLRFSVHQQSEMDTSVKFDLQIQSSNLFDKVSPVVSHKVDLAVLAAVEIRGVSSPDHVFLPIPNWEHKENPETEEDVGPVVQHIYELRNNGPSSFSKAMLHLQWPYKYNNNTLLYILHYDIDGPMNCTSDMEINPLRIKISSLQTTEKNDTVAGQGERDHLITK
Sequence (P06756 891-1048 limits assumed, one chain of several): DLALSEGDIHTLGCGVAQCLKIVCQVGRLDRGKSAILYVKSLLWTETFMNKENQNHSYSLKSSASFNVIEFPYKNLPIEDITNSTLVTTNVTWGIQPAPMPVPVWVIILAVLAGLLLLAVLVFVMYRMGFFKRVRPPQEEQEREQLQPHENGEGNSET
Test: Antagonist activity at alphaVbeta3 in human SK-MEL-24 cells assessed as reduction in cell adhesion to fibronectin pre-incubated for 30 mins before fibronectin and further incubated for 1 hr by nitrophenyl-N-acetyl-beta-D-glucosaminide substrate based chromogenic assay
pIC50: −log10 of the molar value.

Problem: Please respond with reported pIC50 (system Integrin alpha-V/beta-3 (Homo sapiens, UniProt P05106+P06756)) for NCc1ccc(NC(=O)N2C(=O)CC2CC(=O)NCCC(=O)O)cc1.O=C(O)C(F)(F)F (stereo not given) .
Result: < 5.30

Problem: Please respond with reported pIC50 (system Integrin alpha-V/beta-3 (Homo sapiens, UniProt P05106+P06756)) for O=C(O)CC1CC(=O)N1 (stereo not given) .
Result: 7.39

Problem: Please respond with reported pIC50 (system Integrin alpha-V/beta-3 (Homo sapiens, UniProt P05106+P06756)) for Nc1ccc(CNC(=O)N2C(=O)CC2CC(=O)NCCC(=O)O)cc1.O=C(O)C(F)(F)F (stereo not given) .
Result: < 5.30

Problem: Please respond with reported pIC50 (system Integrin alpha-V/beta-3 (Homo sapiens, UniProt P05106+P06756)) for Nc1ccc(CNC(=O)N2C(=O)C[C@H]2C(=O)O)cc1.O=C(O)C(F)(F)F .
Result: < 5.30

Problem: Please respond with reported pIC50 (system Integrin alpha-V/beta-3 (Homo sapiens, UniProt P05106+P06756)) for O=C(O)CC1CC(=O)N1C(=O)NCc1ccccc1 (stereo not given) .
Result: < 5.30

Problem: Please respond with reported pIC50 (system Integrin alpha-V/beta-3 (Homo sapiens, UniProt P05106+P06756)) for Nc1ccc(CNC(=O)N2C(=O)CC2CC(=O)O)cc1.O=C(O)C(F)(F)F (stereo not given) .
Result: 7.14

Problem: Please respond with reported pIC50 (system Integrin alpha-V/beta-3 (Homo sapiens, UniProt P05106+P06756)) for NCc1ccc(NC(=O)N2C(=O)C[C@H]2C(=O)O)cc1.O=C(O)C(F)(F)F .
Result: < 5.30

Problem: Please respond with reported pIC50 (system Integrin alpha-V/beta-3 (Homo sapiens, UniProt P05106+P06756)) for Cc1ccccc1NC(=O)N1C(=O)C[C@H]1C(=O)O .
Result: 6.45

Problem: Please respond with reported pIC50 (system Integrin alpha-V/beta-3 (Homo sapiens, UniProt P05106+P06756)) for Cc1ccccc1NC(=O)N1C(=O)CC1CC(=O)NCC(=O)O (stereo not given) .
Result: < 5.30

Problem: Please respond with reported pIC50 (system Integrin alpha-V/beta-3 (Homo sapiens, UniProt P05106+P06756)) for Cc1ccccc1NC(=O)N1C(=O)CC1CC(=O)O (stereo not given) .
Result: < 5.30
